Test method notes: modulators of CD8 T cell-vesicle binding, confirmation, cherry-picked primary hits, two concentrations (AID 2810);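 note: lower values mean blocking of vesicle binding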
Stated conditions: 2C CD8+ T cell-vesicle binding, flow cytometry; CD8+/vesicle+ events; at 15.4 µM; stronger effect = lower value
Among all 1,200 compounds or so, about 65 (5%) were called active. Only a selection was taken, and actives are over-represented in it overall.
Friendly reminder: double positive events below 20% is YES, at or above is NO.

Use the examples below as a reference point.
stdin: I wonder whether `O=C(COc1ccccc1)NNC(=O)c1ccc(Cl)cc1` has double positive events below 20%. Can you tell?
stdout: YES

stdin: I wonder whether `Cc1ccc(CONC(=O)c2cccc([N+](=O)[O-])c2)cc1` has double positive events below 20%. Can you tell?
stdout: YES

stdin: I wonder whether `CCOC(=O)c1c(C=O)c2ccccc2n1CC` has double positive events below 20%. Can you tell?
stdout: YES

stdin: I wonder whether `CCc1ccc(OCc2cnc(Cl)s2)cc1` has double positive events below 20%. Can you tell?
stdout: YES

stdin: I wonder whether `CCOc1ccc(-c2nc(N)ncc2-c2ccccc2)c(O)c1` has double positive events below 20%. Can you tell?
stdout: NO

More entries:
stdin: I wonder whether Cc1cc(C)nc(SCCn2c(N3CC(C)OC(C)C3)nc3c2c(=O)n(C)c(=O)n3C)n1 (centres undefined) has double positive events below 20%. Can you tell?
stdout: NO

stdin: I wonder whether `Cc1ccc(NC(=O)C2c3ccccc3Oc3ccccc32)c(C)c1` has double positive events below 20%. Can you tell?
stdout: NO

stdin: I wonder whether `COc1ccc(/C=C2\SC(N3CCc4ccccc4C3)=NC2=O)cc1OC` has double positive events below 20%. Can you tell?
stdout: YES

stdin: I wonder whether `CCN1CCN(c2ccc(NC(=O)c3cc4ccccc4cc3OC)cc2C)CC1` has double positive events below 20%. Can you tell?
stdout: YES

stdin: I wonder whether `CCN1CCN(c2ccc(S(=O)(=O)N3CCCCC3)cc2NC(=O)c2cccc(C)c2[N+](=O)[O-])CC1` has double positive events below 20%. Can you tell?
stdout: NO

stdin: I wonder whether `CCn1c(=O)cc(SCC(=O)N(C)Cc2ccccc2)c2ccccc21` has double positive events below 20%. Can you tell?
stdout: YES

stdin: I wonder whether O=C(Nc1ccccc1)N1CCc2c([nH]c3ccccc23)C1C(F)(F)F (centres undefined) has double positive events below 20%. Can you tell?
stdout: NO

stdin: I wonder whether `O=C(Nn1cnc2ccccc2c1=O)C1CCCCC1` has double positive events below 20%. Can you tell?
stdout: YES

stdin: I wonder whether `CCOC(=O)c1c(O)c2cc(Cl)ccc2n(CC)c1=O` has double positive events below 20%. Can you tell?
stdout: YES

stdin: I wonder whether `Cc1cc(C)c(/C=N/NC(N)=O)c(C)c1/C=N/NC(N)=O` has double positive events below 20%. Can you tell?
stdout: YES

stdin: I wonder whether `CCOc1ccccc1NC(=O)c1ccc(F)c(S(=O)(=O)N2CCC3(CC2)OCCO3)c1` has double positive events below 20%. Can you tell?
stdout: YES

stdin: I wonder whether `COc1cc2ccccc2cc1C(=O)NC1CCCCC1` has double positive events below 20%. Can you tell?
stdout: YES

stdin: I wonder whether Cc1nc2sc(C(c3ccccc3)N3CCN(c4ccccc4F)CC3)c(O)n2n1 (centres undefined) has double positive events below 20%. Can you tell?
stdout: YES

stdin: I wonder whether `O=C(Nc1ccccc1C(=O)NCc1cccnc1)c1ccccc1Cl` has double positive events below 20%. Can you tell?
stdout: YES

stdin: I wonder whether `CC(=O)COc1ccc2c(-c3ccccc3)cc(=O)oc2c1` has double positive events below 20%. Can you tell?
stdout: YES

stdin: I wonder whether `CCCCCCCCn1c2c(c(=N)c3c1CCC3)CCCC2` has double positive events below 20%. Can you tell?
stdout: YES

stdin: I wonder whether `O=S(=O)(NN=C1CCCCCCC1)c1ccc(Br)cc1` has double positive events below 20%. Can you tell?
stdout: YES

stdin: I wonder whether `Cc1sc(NC(=O)CN2CCOCC2)c(C#N)c1C` has double positive events below 20%. Can you tell?
stdout: NO
